Assay: ATG_AP_1_CIS: Attagene CIS-FACTORIAL HepG2 Assay for human Activator Protein 1 (AP-1) (AID 2282931)
Conditions: HepG2 Attagene cis-factorial AP-1 reporter mRNA; actives raise or lower the signal
Calls of active or inactive are those of the source. How the source made its calls: active means hit-call score of the fitted dose curve at least 0.9, where 1 is the maximum; inactive means score below 0.9.
Pick one and only one: active, inactive

State the result this test recorded for `O=C(O)C=C(C(F)(F)F)C(F)(F)F` .
inactive

State the result this test recorded for COC(OC(C)=O)c1ccccc1 (stereo unspecified) .
inactive

State the result this test recorded for `FC(F)(F)C(F)(F)C(F)(F)C(F)(F)C(F)(F)C(F)(F)C(F)(F)C(F)(F)CCS` .
inactive

State the result this test recorded for `N=C(N)C(F)(F)C(F)(F)C(F)(F)C(F)(F)C(F)(F)C(F)(F)C(F)(F)F` .
active

State the result this test recorded for `Cc1cc(C)cc(O)c1` .
inactive

State the result this test recorded for O=C(O)C(F)(OC(F)(F)C(F)(OC(F)(F)C(F)(OC(F)(F)C(F)(F)C(F)(F)F)C(F)(F)F)C(F)(F)F)C(F)(F)F (stereo unspecified) .
inactive

====

Read-out: Monocyte Chemoattractant Protein-1 (MCP1), CCL2 (gene 6347)
Assay: BSK_IMphg_MCP1: BioMAP Diversity Plus: IMphg Assay for Monocyte Chemoattractant Protein-1 (MCP1) Biomarker Activity (AID 2284253)
Details: primary human endothelial cells with macrophages
Activity calls are given as the source filed them. How the source made its calls: active means hit-call score of the fitted dose curve at least 0.9, where 1 is the maximum; inactive means score below 0.9.
outcome.measure: outcome

Example compounds with recorded outcome:
Dear colleague, please send me the reported outcome for `O=P(O)(O)OCCC(F)(F)C(F)(F)C(F)(F)C(F)(F)C(F)(F)C(F)(F)F` when you can.
inactive

Dear colleague, please send me the reported outcome for `FC(F)(I)C(F)(F)C(F)(F)C(F)(F)I` when you can.
inactive

Dear colleague, please send me the reported outcome for `FC(F)(F)C(F)(F)C(F)(F)N(C(F)(F)C(F)(F)C(F)(F)F)C(F)(F)C(F)(F)C(F)(F)F` when you can.
inactive

Dear colleague, please send me the reported outcome for `FC(F)(F)C(F)(F)C(F)(F)C(F)(F)C(F)(F)C(F)(F)C(F)(F)I` when you can.
inactive

Dear colleague, please send me the reported outcome for `C=CC(F)(F)C(F)(F)C(F)(F)C(F)(F)C(F)(F)C(F)(F)C(F)(F)C(F)(F)F` when you can.
inactive

Dear colleague, please send me the reported outcome for FC(F)(F)C(F)(F)C(F)(F)C(F)(F)C(F)(F)C(F)(F)CC1CO1 (stereo not drawn) when you can.
inactive

Dear colleague, please send me the reported outcome for `O=C(O)C(F)(F)C(F)(F)C(F)(F)C(F)(F)C(F)(F)C(F)(F)C(F)(F)C(F)(F)C(F)(F)C(F)(F)C(F)(F)C(F)(F)C(F)(F)F` when you can.
inactive

// moving on: another record for outcome
Dear colleague, please send me the reported outcome for `OCC(F)(F)C(F)(F)C(F)(F)F` when you can.
inactive

====

Target: human RAR-related Orphan Receptor beta (RORb), RORB (gene 6096) (UniProt Q92753)
Sequence (Q92753 whole entry, looked up): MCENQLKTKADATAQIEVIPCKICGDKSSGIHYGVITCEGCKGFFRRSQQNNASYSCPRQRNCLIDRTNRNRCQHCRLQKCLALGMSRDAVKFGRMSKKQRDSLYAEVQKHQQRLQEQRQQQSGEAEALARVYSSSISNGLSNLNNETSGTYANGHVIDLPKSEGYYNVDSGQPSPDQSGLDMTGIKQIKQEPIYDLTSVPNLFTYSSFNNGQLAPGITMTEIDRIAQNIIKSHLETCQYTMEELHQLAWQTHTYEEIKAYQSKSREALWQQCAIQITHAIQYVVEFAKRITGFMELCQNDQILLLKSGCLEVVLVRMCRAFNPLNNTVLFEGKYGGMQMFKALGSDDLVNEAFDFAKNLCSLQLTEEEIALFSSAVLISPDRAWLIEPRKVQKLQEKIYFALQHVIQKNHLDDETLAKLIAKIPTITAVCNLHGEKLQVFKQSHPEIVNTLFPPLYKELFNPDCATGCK
Experiment: ATG_RORb_TRANS: Attagene TRANS-FACTORIAL HepG2 Assay for human RAR-related Orphan Receptor beta (RORb) (AID 2283010)
Inconclusive results are not listed. Calls of active or inactive are those of the source. Rule for the calls: active = hit-call score of the fitted dose curve at least 0.9, where 1 is the maximum; inconclusive = response in the unintended direction; inactive = score below 0.9.
outcome.measure: outcome

Report the value of outcome obtained on human RAR-related Orphan Receptor beta (RORb), RORB (gene 6096) (UniProt Q92753) for `Oc1ccc(Nc2ccccc2)cc1` .
inactive

Report the value of outcome obtained on human RAR-related Orphan Receptor beta (RORb), RORB (gene 6096) (UniProt Q92753) for `C1COCCN1` .
inactive

Report the value of outcome obtained on human RAR-related Orphan Receptor beta (RORb), RORB (gene 6096) (UniProt Q92753) for `O=C(O)C(F)(F)C(F)(F)C(F)(F)C(F)(F)C(F)(F)C(F)(F)C(F)(F)C(F)(F)C(F)(F)C(F)(F)C(F)(F)C(F)(F)F` .
inactive

Report the value of outcome obtained on human RAR-related Orphan Receptor beta (RORb), RORB (gene 6096) (UniProt Q92753) for O=C(O)C(F)(OC(F)(F)C(F)(OC(F)(F)C(F)(OC(F)(F)C(F)(F)C(F)(F)F)C(F)(F)F)C(F)(F)F)C(F)(F)F (stereo not given) .
inactive

// moving on: another record for outcome
Report the value of outcome obtained on human RAR-related Orphan Receptor beta (RORb), RORB (gene 6096) (UniProt Q92753) for CCCCC(CC)COP(=O)(O)OCC(CC)CCCC (stereo not given) .
inactive

====

Read-out: E-selectin (Homo sapiens)
Assay: BSK_SAg_Eselectin: BioMAP Diversity Plus: SAg Assay for Eselectin Biomarker Activity (AID 2283091)
Conditions: primary human HUVEC with PBMC; actives raise or lower the signal
The source made the active and inactive calls. The calls were made as follows: active = hit-call score of the fitted dose curve at least 0.9, where 1 is the maximum; inactive = score below 0.9.
Pick one and only one: active, inactive

Observe how each entry below is paired with its result.
State the result this test recorded for `O=C(O)C(F)(F)C(F)(F)C(F)F` .
inactive

State the result this test recorded for `O=C(O)C(F)(F)C(F)(F)C(F)(F)C(F)(F)C(F)(F)C(F)(F)C(F)(F)C(F)(F)C(F)(F)C(F)(F)C(F)(F)C(F)(F)F` .
inactive

State the result this test recorded for `CS(C)(=O)=O` .
inactive

Further cases:
State the result this test recorded for `CCc1ccc(C(c2ccc(CC)cc2)C(Cl)Cl)cc1` .
active

State the result this test recorded for `FC(F)(F)C(F)(F)CNCC(F)(F)C(F)(F)F` .
inactive

State the result this test recorded for `FC(F)(F)C(F)(F)C(F)(F)C(F)(F)C(F)(F)CCI` .
inactive

State the result this test recorded for `CCCCNc1ccccc1` .
inactive

State the result this test recorded for `O=S(=O)(O)C(F)(F)C(F)(F)C(F)(F)C(F)(F)C(F)(F)C(F)(F)C(F)(F)F` .
inactive

State the result this test recorded for `O=C(O)C(F)(F)C(F)(F)C(F)(F)C(F)(F)F` .
inactive

State the result this test recorded for FC(F)(F)C(F)(F)C(F)(F)C(F)(F)C(F)(F)C(F)(F)CC1CO1 (stereo unspecified) .
inactive

State the result this test recorded for `COC(=O)CCC(F)(F)C(F)(F)C(F)(F)C(F)(F)F` .
inactive

====

Read-out: Low-density lipoprotein receptor (LDLR), LDLR (gene 3949)
Assay: BSK_CASM3C_LDLR: BioMAP Diversity Plus: CASM3C Assay for Low-density lipoprotein receptor (LDLR) Biomarker Activity (AID 2283045);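 further: LDLR protein level on the cell surface quantified by ELISA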
Conditions: primary human coronary artery smooth muscle cells; actives raise or lower the signal
Activity calls are given as the source filed them. How the source made its calls: active means hit-call score of the fitted dose curve at least 0.9, where 1 is the maximum; inactive means score below 0.9.
outcome.measure: outcome

Example molecules with recorded outcome:
Dear colleague, please send me the reported outcome for `C=CC(F)(F)C(F)(F)C(F)(F)C(F)(F)C(F)(F)C(F)(F)C(F)(F)C(F)(F)F` when you can.
inactive

Dear colleague, please send me the reported outcome for `FC(F)(Br)C(F)(F)C(F)(F)C(F)(F)C(F)(F)C(F)(F)Br` when you can.
inactive

Dear colleague, please send me the reported outcome for `FC(F)(F)C(F)(F)CNCC(F)(F)C(F)(F)F` when you can.
inactive

Dear colleague, please send me the reported outcome for `O=C(O)C(F)(F)C(F)(F)C(F)(F)C(F)(F)C(F)(F)C(F)(F)C(F)(F)C(F)(F)C(F)(F)C(F)(F)C(F)(F)C(F)(F)F` when you can.
inactive

// moving on: another record for outcome
Dear colleague, please send me the reported outcome for `CCc1ccc(C(c2ccc(CC)cc2)C(Cl)Cl)cc1` when you can.
inactive

====

Biological target: Estrogen receptor (Homo sapiens)
Test: NVS_NR_hER: NovaScreen (NVS) Nuclear Receptor Binding Assay for human Estrogen Receptor (ER) (AID 2283348)
Inconclusive results are not listed. Calls of active or inactive are those of the source. Rule for the calls: active = hit-call score of the fitted dose curve at least 0.9, where 1 is the maximum; inconclusive = response in the unintended direction; inactive = score below 0.9.
Pick one and only one: active, inactive

State the result this test recorded for `c1ccc(B(c2ccccc2)c2ccccc2)cc1` .
active

State the result this test recorded for `CCCCCCCCCCCCCCCC[N+](C)(C)Cc1ccccc1` .
inactive

State the result this test recorded for `C(=C(c1ccccc1)c1ccccc1)c1ccccc1` .
inactive

State the result this test recorded for `CN(C)Cc1ccccc1O` .
inactive

State the result this test recorded for `Oc1ccc(Nc2ccccc2)cc1` .
active

State the result this test recorded for `Nc1ccc([N+](=O)[O-])cc1O` .
inactive

====

Test: ATG_M_32_CIS: Attagene CIS-FACTORIAL HepG2 Assay for M32 Transcription Factor (Internal Marker) (AID 2282949);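 further: background control marker of the multiplexed CIS panel rather than a real target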
Conditions: HepG2 Attagene cis-factorial M32 reporter, mRNA; actives raise or lower the signal
Calls of active or inactive are those of the source. Rule for the calls: active = hit-call score of the fitted dose curve at least 0.9, where 1 is the maximum; inactive = score below 0.9.
outcome.measure: outcome

Dear colleague, please send me the reported outcome for `CCCCOCCOCCOC(=O)CCCCC(=O)OCCOCCOCCCC` when you can.
inactive

Dear colleague, please send me the reported outcome for `C=CC(F)(F)C(F)(F)C(F)(F)C(F)(F)C(F)(F)C(F)(F)C(F)(F)C(F)(F)F` when you can.
inactive

Dear colleague, please send me the reported outcome for `O[Si](c1ccccc1)(c1ccccc1)c1ccccc1` when you can.
inactive
